target: T1, human MSLN-R3-3 polypeptide (human); assay: ELISA, coated MSLN-R3-3;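 note: chimeric antibodies in serial dilution bound to plate-coated antigen for 2 h at 37 °C, with a negative control antibody alongside, and TMB colour development stopped with HCl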
T1 construct: also called human MSLN-R3-3 protein; hMSLN-R3-3
Measured Metric: OD450 at 0.1 nM (OD450)
Give the quantity in OD450, number only.

| Binder | Measured Metric | Unit Descriptor | Observed Value |
| --- | --- | --- | --- |
| S009-F1.62.9 (antibody, human IgG1, kappa, V domains shown, Human-murine chimeric antibody, human IgG1/kappa constant regions) VH: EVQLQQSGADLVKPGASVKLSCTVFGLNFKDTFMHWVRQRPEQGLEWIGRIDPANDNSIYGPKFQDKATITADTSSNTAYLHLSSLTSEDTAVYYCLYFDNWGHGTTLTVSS VL: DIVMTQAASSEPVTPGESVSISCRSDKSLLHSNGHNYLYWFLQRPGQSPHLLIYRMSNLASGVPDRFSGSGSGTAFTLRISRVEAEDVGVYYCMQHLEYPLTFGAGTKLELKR | OD450 at 0.1 nM | OD450 | 0.07 |
| S009-F1.2.12 (antibody, human IgG1, kappa, V domains shown) VH: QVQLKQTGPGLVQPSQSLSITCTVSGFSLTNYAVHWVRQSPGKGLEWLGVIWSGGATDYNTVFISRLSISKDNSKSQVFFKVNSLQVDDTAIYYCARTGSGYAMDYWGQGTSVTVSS VL: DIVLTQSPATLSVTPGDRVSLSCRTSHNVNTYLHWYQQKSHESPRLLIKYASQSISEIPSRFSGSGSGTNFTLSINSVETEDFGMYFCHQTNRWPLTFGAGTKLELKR | OD450 at 0.1 nM | OD450 | 0.07 |

Turning now to a further record.
Could you share which OD450 at 0.1 nM value was measured for S009-F1.57.1 (antibody, human IgG1, kappa, V domains shown, Human-murine chimeric antibody, human IgG1/kappa constant regions) VH: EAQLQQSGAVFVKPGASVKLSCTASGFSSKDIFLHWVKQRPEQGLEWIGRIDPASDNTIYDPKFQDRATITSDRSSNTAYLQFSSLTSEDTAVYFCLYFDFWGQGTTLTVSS VL: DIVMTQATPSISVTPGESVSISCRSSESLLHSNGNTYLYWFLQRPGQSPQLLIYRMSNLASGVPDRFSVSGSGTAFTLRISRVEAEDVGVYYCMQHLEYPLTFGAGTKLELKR ?
0.07
